Molecular target: recombinant human NK3 receptor (Homo sapiens)
Construct: expressed in transfected cells; host or cells: HEK293 cells, transient expression; membranes
Sequence (P29371 1-465): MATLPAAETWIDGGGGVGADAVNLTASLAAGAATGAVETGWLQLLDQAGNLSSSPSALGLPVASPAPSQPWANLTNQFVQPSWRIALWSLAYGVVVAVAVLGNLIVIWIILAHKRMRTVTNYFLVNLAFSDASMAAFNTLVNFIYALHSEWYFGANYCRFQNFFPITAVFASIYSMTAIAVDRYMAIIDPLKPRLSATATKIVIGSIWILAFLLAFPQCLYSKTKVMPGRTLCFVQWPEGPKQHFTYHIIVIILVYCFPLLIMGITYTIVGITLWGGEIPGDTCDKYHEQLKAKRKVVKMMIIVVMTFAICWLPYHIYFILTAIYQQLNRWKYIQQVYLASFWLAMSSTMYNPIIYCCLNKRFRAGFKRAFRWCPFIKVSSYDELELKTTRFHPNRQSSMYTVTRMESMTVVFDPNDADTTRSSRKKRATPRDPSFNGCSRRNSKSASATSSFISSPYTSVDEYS
Assay: [3H]SR142801 competition binding assay
Kindly apply the following: rule met if Ki is less than 3 nM, rule not met in every other case.

| Compound | Group label |
| --- | --- |
| CN(C(=O)Oc1ccc(F)cc1)[C@H]1CN(C(=O)C2CCOCC2)C[C@@H]1c1ccc(Cl)c(Cl)c1 (racemic) | rule met |
| CN(C(=O)Oc1ccc(F)cc1)[C@H]1CN(C(=O)[C@H]2CC[C@@H](O)CC2)C[C@@H]1c1ccc(Cl)c(Cl)c1 (racemic) | rule not met |
| CN(C(=O)Oc1ccc(F)cc1)[C@@H]1CN(C(=O)C2CCN(c3ccc(O)cn3)CC2)C[C@H]1c1ccc(Cl)cc1 | rule not met |
| CN(C(=O)Oc1ccc(S(C)(=O)=O)cc1)[C@@H]1CN(C(=O)C2CCN(c3ccc(C#N)cn3)CC2)C[C@H]1c1ccc(Cl)cc1 | rule not met |
| CN(C(=O)Oc1ccc(F)cc1)[C@@H]1CN(C(=O)C2CCN(C(=O)[C@@H]3CC(=O)N3)CC2)C[C@H]1c1ccc(Cl)c(Cl)c1 | rule met |
| CN(C(=O)O[C@H]1CC[C@H](C(F)(F)F)CC1)[C@@H]1CN(C(=O)C2CCN(c3ccc(C(=O)NC(C)(C)C)cn3)CC2)C[C@H]1c1ccc(Cl)cc1 (racemic) | rule not met |

---

Target: recombinant human NK3 receptor (Homo sapiens)
Construct: expressed in transfected cells; host or cells: HEK293 cells, transient expression; membranes
Sequence (P29371 1-465): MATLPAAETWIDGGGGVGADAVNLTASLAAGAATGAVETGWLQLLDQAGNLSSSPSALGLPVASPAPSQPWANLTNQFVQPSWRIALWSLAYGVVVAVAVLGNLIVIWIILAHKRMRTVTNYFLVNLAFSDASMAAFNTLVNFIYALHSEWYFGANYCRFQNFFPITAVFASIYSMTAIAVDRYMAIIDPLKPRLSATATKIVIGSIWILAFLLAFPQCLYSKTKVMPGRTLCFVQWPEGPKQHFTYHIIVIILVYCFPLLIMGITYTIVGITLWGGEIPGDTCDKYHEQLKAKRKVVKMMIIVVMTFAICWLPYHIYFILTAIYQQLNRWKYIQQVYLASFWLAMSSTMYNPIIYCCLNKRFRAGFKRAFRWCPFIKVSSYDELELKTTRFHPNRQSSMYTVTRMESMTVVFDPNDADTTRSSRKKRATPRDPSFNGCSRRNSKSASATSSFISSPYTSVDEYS
Experiment: [3H]SR142801 competition binding assay
Some compounds, each annotated with its measured Ki.

| Compound | Reading unit | Ki |
| --- | --- | --- |
| CN(C(=O)OCC(C)(C)C)[C@@H]1CN(C(=O)C2CCN(c3ccc(C#N)cn3)CC2)C[C@H]1c1ccc(Cl)cc1 [Example 205] | nM | 5.7 |
| CN(C(=O)Oc1ccc(C#N)cc1)[C@@H]1CN(C(=O)C2CCN(c3ccc(C#N)cn3)CC2)C[C@H]1c1ccc(Cl)cc1 [Example 228] | nM | 0.8 |
| CN(C(=O)O[C@H]1CC[C@H](C)CC1)[C@H]1CN(C(=O)C2CCN(C(=O)C3(C)CC3)CC2)C[C@@H]1c1ccc(Cl)cc1 (racemic) [Example 57] | nM | 7.6 |

---

Consider the following compounds and their measured log10 Ki readings.
target: recombinant human NK3 receptor (Homo sapiens, UniProt P29371); construct: expressed in transfected cells; host or cells: HEK293 cells, transient expression; membranes; experiment: [3H]SR142801 competition binding assay
Endpoint name: log10 Ki (log10 of the value in nM)

| Compound | System name | Observed measurement |
| --- | --- | --- |
| Cc1ccc(OC(=O)N(C)[C@@H]2CN(C(=O)C3CCN(C(=O)C4(C)CC4)CC3)C[C@H]2c2ccc(Cl)c(Cl)c2)cc1 [Example 17] | recombinant human NK3 receptor (Homo sapiens, UniProt P29371) | -0.15 |
| CN(C(=O)Oc1ccc(F)cc1)[C@@H]1CN(C(=O)C2CCN(C(=O)C3(C)COC3)CC2)C[C@H]1c1ccc(Cl)c(Cl)c1 [Example 266] | recombinant human NK3 receptor (Homo sapiens, UniProt P29371) | -0.30 |
| Cc1ccccc1OC(=O)N(C)[C@@H]1CN(C(=O)C2CCN(c3ccc(C#N)cn3)CC2)C[C@H]1c1ccc(Cl)cc1 [Example 229] | recombinant human NK3 receptor (Homo sapiens, UniProt P29371) | 1.23 |
| CN(C(=O)Oc1ccc(F)cc1)[C@@H]1CN(C(=O)C2CCN(C(=O)C3CC3)C2)C[C@H]1c1ccc(Cl)cc1 (stereo partly shown) [Example 171] | recombinant human NK3 receptor (Homo sapiens, UniProt P29371) | 0.98 |
| CN(C(=O)Oc1ccc(F)cc1)[C@H]1CN(C(=O)C2CCN(C(=O)OC(C)(C)C)CC2)C[C@@H]1c1ccc(Cl)c(Cl)c1 (racemic) [Example 66] | recombinant human NK3 receptor (Homo sapiens, UniProt P29371) | -0.10 |
| CN(C(=O)Oc1ccc(F)cc1)[C@H]1CN(C(=O)C2CCN(c3nncs3)CC2)C[C@@H]1c1ccc(Cl)c(Cl)c1 (racemic) [Example 78] | recombinant human NK3 receptor (Homo sapiens, UniProt P29371) | 0.18 |
| CN(C(=O)OCCCC(F)(F)F)[C@@H]1CN(C(=O)C2CCN(c3ccc(C(=O)NC(C)(C)C)cn3)CC2)C[C@H]1c1ccc(Cl)cc1 (racemic) [Example 124] | recombinant human NK3 receptor (Homo sapiens, UniProt P29371) | 1.60 |
| CN(C(=O)Oc1cccc(F)c1F)[C@@H]1CN(C(=O)C2CCN(c3ccc(C#N)cn3)CC2)C[C@H]1c1ccc(Cl)cc1 [Example 211] | recombinant human NK3 receptor (Homo sapiens, UniProt P29371) | 0.38 |
| CC(OC(=O)N(C)[C@@H]1CN(C(=O)C2CCN(c3ccc(C#N)cn3)CC2)C[C@H]1c1ccc(Cl)cc1)c1ccc(F)cc1 (stereo partly shown) [Example 226] | recombinant human NK3 receptor (Homo sapiens, UniProt P29371) | 1.90 |
| CN(C(=O)Oc1ccc(F)cc1)[C@H]1CN(C(=O)C2CCN(c3ccc(Cl)nn3)CC2)C[C@@H]1c1ccc(Cl)c(Cl)c1 (racemic) [Example 79] | recombinant human NK3 receptor (Homo sapiens, UniProt P29371) | -0.40 |
| CC(=O)N1CCC(C(=O)N2C[C@@H](N(C)C(=O)Oc3ccc(F)cc3)[C@H](c3ccc(Cl)c(Cl)c3)C2)CC1 [Example 283] | recombinant human NK3 receptor (Homo sapiens, UniProt P29371) | -0.15 |
| CN(C(=O)Oc1ccc(F)cc1)[C@@H]1CN(C(=O)C2CCN(c3cnc(C#N)cn3)CC2)C[C@H]1c1ccc(Cl)cc1 [Example 193] | recombinant human NK3 receptor (Homo sapiens, UniProt P29371) | 0.04 |
| Cc1ccc(OC(=O)N(C)[C@@H]2CN(C(=O)C3CCN(c4ccc(C#N)cn4)CC3)C[C@H]2c2ccc(Cl)cc2)cc1 [Example 202] | recombinant human NK3 receptor (Homo sapiens, UniProt P29371) | 0.63 |
| COCC(=O)N1CCC(C(=O)N2C[C@@H](N(C)C(=O)Oc3ccc(F)cc3)[C@H](c3ccc(Cl)cc3)C2)C1 (stereo partly shown) [Example 172] | recombinant human NK3 receptor (Homo sapiens, UniProt P29371) | 0.61 |
| CN(C(=O)Oc1ccc(F)cc1)[C@@H]1CN(C(=O)C2CCN(c3ccc(Cl)cn3)CC2)C[C@H]1c1ccc(Cl)cc1 [Example 199] | recombinant human NK3 receptor (Homo sapiens, UniProt P29371) | -0.05 |
| CN(C(=O)O[C@H]1CC[C@H](C)CC1)[C@@H]1CN(C(=O)C2CCN(c3ccc(C#N)cn3)CC2)C[C@H]1c1ccc(Cl)cc1 [Example 221] | recombinant human NK3 receptor (Homo sapiens, UniProt P29371) | 0.00 |
| CN(C(=O)Oc1ccc(F)cc1)[C@@H]1CN(C(=O)CCN2CCOCC2)C[C@H]1c1ccc(Cl)cc1 [Example 114] | recombinant human NK3 receptor (Homo sapiens, UniProt P29371) | 1.92 |
| CN(C(=O)Oc1ccc(F)cc1)[C@H]1CN(C(=O)C2CCN(C3CCOCC3)CC2)C[C@@H]1c1ccc(Cl)c(Cl)c1 (racemic) [Example 77] | recombinant human NK3 receptor (Homo sapiens, UniProt P29371) | 0.18 |
| CN(C(=O)Oc1ccc(F)cc1)[C@@H]1CN(C(=O)C2CCN(c3ccc(C#N)cn3)CC2)C[C@H]1c1ccc(Cl)cc1 [Example 94] | recombinant human NK3 receptor (Homo sapiens, UniProt P29371) | -0.70 |
| CN(C(=O)OCc1ccc(F)cc1)[C@H]1CN(C(=O)C2CCN(C(=O)C3(C)CC3)CC2)C[C@@H]1c1ccc(Cl)c(Cl)c1 (racemic) [Example 95] | recombinant human NK3 receptor (Homo sapiens, UniProt P29371) | 0.76 |
| Cc1nnc(N2CCC(C(=O)N3C[C@@H](N(C)C(=O)Oc4ccc(F)cc4)[C@H](c4ccc(Cl)cc4)C3)CC2)o1 [Example 134] | recombinant human NK3 receptor (Homo sapiens, UniProt P29371) | 0.56 |
| CN(C(=O)Oc1ccc(F)cc1)[C@@H]1CN(C(=O)C2CCN(C(=O)C3(C)COC3)CC2)C[C@H]1c1ccc(Cl)cc1 [Example 248] | recombinant human NK3 receptor (Homo sapiens, UniProt P29371) | 0.45 |
| CN(C(=O)Oc1ccc(F)c(F)c1)[C@@H]1CN(C(=O)C2CCN(c3ccc(C#N)cn3)CC2)C[C@H]1c1ccc(Cl)cc1 [Example 209] | recombinant human NK3 receptor (Homo sapiens, UniProt P29371) | -0.10 |
| CN(C(=O)Oc1ccc(F)cc1)[C@@H]1CN(C(=O)C2CCN(c3ncc(Cl)cn3)CC2)C[C@H]1c1ccc(Cl)cc1 [Example 184] | recombinant human NK3 receptor (Homo sapiens, UniProt P29371) | 0.83 |
| CN(C(=O)Oc1ccc(F)cc1)[C@@H]1CN(C(=O)C2CCOCC2)C[C@H]1c1ccc(Cl)c(Cl)c1 [Example 51] | recombinant human NK3 receptor (Homo sapiens, UniProt P29371) | 0.26 |
